Assay method text: Hygroscopicity at room temperature (weight gain and visual phase transition after 24 hours at controlled RH)
Assay type: physicochemical
Stated conditions: 75% RH, room temperature, 24 hours, visual observation
Measure: Phase transition

Consider the reported Phase transition for these compounds:
[
  {
    "Compound": "CC(C)c1nc(CN(C)C(=O)N[C@@H](CCN2CCOCC2)C(=O)N[C@H](CC[C@H](Cc2ccccc2)NC(=O)OCc2cncs2)Cc2ccccc2)cs1.CC(O)C(=O)O [lactate]",
    "Phase transition": "Yes"
  },
  {
    "Compound": "CC(C)c1nc(CN(C)C(=O)NC(CCN2CCOCC2)C(=O)NC(CCC(Cc2ccccc2)NC(=O)OCc2cncs2)Cc2ccccc2)cs1.O=C(O)c1ccc2ccccc2c1O (centres unmarked) [xinafoate]",
    "Phase transition": "No"
  },
  {
    "Compound": "CC(C)c1nc(CN(C)C(=O)N[C@@H](CCN2CCOCC2)C(=O)N[C@H](CC[C@H](Cc2ccccc2)NC(=O)OCc2cncs2)Cc2ccccc2)cs1.Cl [hydrochloride]",
    "Phase transition": "Yes"
  },
  {
    "Compound": "CC(C)c1nc(CN(C)C(=O)N[C@@H](CCN2CCOCC2)C(=O)N[C@H](CC[C@H](Cc2ccccc2)NC(=O)OCc2cncs2)Cc2ccccc2)cs1.O=C1NS(=O)(=O)c2ccccc21 [saccharinate]",
    "Phase transition": "Yes"
  },
  {
    "Compound": "CC(C)c1nc(CN(C)C(=O)N[C@@H](CCN2CCOCC2)C(=O)N[C@H](CC[C@H](Cc2ccccc2)NC(=O)OCc2cncs2)Cc2ccccc2)cs1.CC1(C)C2CCC1(CS(=O)(=O)O)C(=O)C2 [camphorosulfonate]",
    "Phase transition": "Yes"
  },
  {
    "Compound": "CC(C)c1nc(CN(C)C(=O)N[C@@H](CCN2CCOCC2)C(=O)N[C@H](CC[C@H](Cc2ccccc2)NC(=O)OCc2cncs2)Cc2ccccc2)cs1.O=P(O)(O)O [phosphate]",
    "Phase transition": "Partial"
  },
  {
    "Compound": "CC(C)c1nc(CN(C)C(=O)N[C@@H](CCN2CCOCC2)C(=O)N[C@H](CC[C@H](Cc2ccccc2)NC(=O)OCc2cncs2)Cc2ccccc2)cs1.O=C(O)c1cc(O)ccc1O [gentisate]",
    "Phase transition": "No"
  },
  {
    "Compound": "CC(C)c1nc(CN(C)C(=O)N[C@@H](CCN2CCOCC2)C(=O)N[C@H](CC[C@H](Cc2ccccc2)NC(=O)OCc2cncs2)Cc2ccccc2)cs1.O=C(O)CCC(=O)O [succinate]",
    "Phase transition": "Yes"
  }
]

Asked: Look up Phase transition for this compound: CC(C)c1nc(CN(C)C(=O)N[C@@H](CCN2CCOCC2)C(=O)N[C@H](CC[C@H](Cc2ccccc2)NC(=O)OCc2cncs2)Cc2ccccc2)cs1.CCS(=O)(=O)O
Given back: Yes

Asked: Any idea what Phase transition was measured for CC(C)c1nc(CN(C)C(=O)N[C@@H](CCN2CCOCC2)C(=O)N[C@H](CC[C@H](Cc2ccccc2)NC(=O)OCc2cncs2)Cc2ccccc2)cs1 [citrate] ?
Given back: Partial

Asked: I'd like to know its Phase transition. The compound in question is CC(C)c1nc(CN(C)C(=O)N[C@@H](CCN2CCOCC2)C(=O)N[C@H](CC[C@H](Cc2ccccc2)NC(=O)OCc2cncs2)Cc2ccccc2)cs1.O=C(O)CNC(=O)c1ccccc1 [hippurate]
Given back: Yes
